I'd appreciate it if you could supply Ki values for the items below.
Report the value in µM with no unit label.

Observed Ki on human subtype 5 somatostatin receptor (SSTR5) (Homo sapiens), entry CCOc1cc(CN2CCC3(CC2)NC(=O)NC3=O)ccc1Cl [Example 2] , equals 0.051

Record CCOc1cc(CN2CCC3(CC2)N=C(c2ccccc2)NC3=O)ccc1Cl [Example 17] has human subtype 5 somatostatin receptor (SSTR5) (Homo sapiens) Ki equal to 0.05

human subtype 5 somatostatin receptor (SSTR5) (Homo sapiens) data for CCOc1cc(CN2CCC3(CC2)N=C(c2ccccc2)NC3=O)ccc1OC(F)F [Example 26] ; its Ki: 0.226

Measured on human subtype 5 somatostatin receptor (SSTR5) (Homo sapiens), CCOc1cc(CN2CCC(C#N)(NC(=O)c3cncc(C)c3)CC2)cc(OCC)c1F [Example 44] has a documented Ki of 0.342

Lab note: molecule CCOc1cc(CN2CCC(C#N)(NC(=O)c3ccc(Cl)nc3)CC2)cc(OCC)c1-c1ccc(F)cc1 [Example 46] tested on human subtype 5 somatostatin receptor (SSTR5) (Homo sapiens); recorded Ki was 0.066

Noted Ki for CCOc1cc(CN2CCC3(CC2)NC(=O)NC3=O)cc(OCC)c1-n1cccc1 [Example 7] , tested on human subtype 5 somatostatin receptor (SSTR5) (Homo sapiens): 0.015
